B1: TRIM43 (parent)
chain: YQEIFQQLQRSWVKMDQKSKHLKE

Variants of: B1
Assay: protein stability index of a GFP-peptide fusion (GPS, HEK-293T) (PSI 1-6); higher = more stable;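 also: lentivirally expressed fusions sorted by FACS into six bins by GFP to DsRed ratio, PSI derived from sequencing read proportions per bin multiplied by bin number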
Details: c terminus: a fixed tail appended
Would you mind labelling by protein stability index? At or over 2 is YES, under is NO.

Inquiry: Exam item: decide whether the reported protein stability index for YQEIFQELQRSWVKMDQKSKHLKE [Q7E] is at least 2.
Reply text: YES

Inquiry: Exam item: decide whether the reported protein stability index for PQEIFQQLQRSWVKMDQKSKHLKE [Y1P] is at least 2.
Reply text: YES

Inquiry: Exam item: decide whether the reported protein stability index for YQEIFQQLQRTWVKMDQKSKHLKE [S11T] is at least 2.
Reply text: NO

Inquiry: Exam item: decide whether the reported protein stability index for YQEIFQQLQRSWVKMDQKSKHKKE [L22K] is at least 2.
Reply text: YES

Inquiry: Exam item: decide whether the reported protein stability index for YDEIFQQLQRSWVKMDQKSKHLKE [Q2D] is at least 2.
Reply text: YES

Inquiry: Exam item: decide whether the reported protein stability index for YQEIFQQLVRSWVKMDQKSKHLKE [Q9V] is at least 2.
Reply text: NO

Inquiry: Exam item: decide whether the reported protein stability index for YQEIFQQLQRHWVKMDQKSKHLKE [S11H] is at least 2.
Reply text: YES

Inquiry: Exam item: decide whether the reported protein stability index for YQEIFQQLQRSWVKMDQKSKHVKE [L22V] is at least 2.
Reply text: YES

Inquiry: Exam item: decide whether the reported protein stability index for YPEIFQQLQRSWVKMDQKSKHLKE [Q2P] is at least 2.
Reply text: YES
